- Tested on: P12-Ichikawa
- Protocol notes: cell viability relative to DMSO control; higher = less cytotoxic
- Test conditions: RPMI 5 mM glucose + 10% FBS; 48 h; 0.569 µM
Endpoint label: cell viability (%)
A number alone suffices; assume %.

{"columns": ["Compound", "Target entity", "Quantity unit", "cell viability"],
 "data": [
  ["Cc1[nH]c2ccccc2c1CCNCc1ccc(/C=C/C(=O)NO)cc1", "P12-Ichikawa", "%", 48.2]
]}

Requested field: cell viability. Item: CC(N)C12CC3CC(CC(C3)C1)C2 (configuration not stated)
112

Lookup COC1=C2OC(=O)\C=C/C2=CC3=C1OC=C3
113

Lookup C=C(C)[C@H]1Cc2c(ccc3c2O[C@@H]2COc4cc(OC)c(OC)cc4[C@@H]2C3=O)O1
73.6

---

Recorded AUC of viability dose-response curve values for a group of molecules are listed next.
- Tested on: SEM cells
- Protocol notes: AUC of viability dose-response curve (% viability x log10 dose units); higher = less sensitive
- Test conditions: RPMI 5 mM glucose + 10% FBS; 48 h
// no unit, no text: just the number

{"columns": ["Molecule", "Endpoint label", "Value observed"],
 "data": [
  ["NC(=O)c1ccc(I)c([N+](=O)[O-])c1", "AUC of viability dose-response curve", 470],
  ["COc1cc2ncnc(Nc3ccc(F)c(Cl)c3)c2cc1NC(=O)/C=C/CN1CCCCC1", "AUC of viability dose-response curve", 415],
  ["Cc1cc(C(C)(C)C)c(O)c(C)c1CC1=NCCN1", "AUC of viability dose-response curve", 392],
  ["CC1(C)O[C@@H]2C[C@H]3[C@@H]4CCC5=CC(=O)C=C[C@]5(C)[C@H]4[C@@H](O)C[C@]3(C)[C@]2(C(=O)CO)O1", "AUC of viability dose-response curve", 353],
  ["COc1cc(OC)c(/C=C/[S+](=O)([O-])Cc2ccc(OC)c(NCC(=O)[O][Na])c2)c(OC)c1", "AUC of viability dose-response curve", 269]
]}

Requested field: AUC of viability dose-response curve. Item: C#C[C@]1(O)CC[C@H]2[C@@H]3CCc4cc(O)ccc4[C@H]3CC[C@@]21C
440

Lookup O=C(Nc1ccc(F)c(C(F)(F)F)c1)Nc1nnc(-c2ccncc2)s1
464

Lookup C/C=C1\C2C=C(C)CC1(N)c1ccc(=O)[nH]c1C2 (stereo unspecified)
458

---

- System: NOMO1
- Protocol notes: cell viability relative to DMSO control; higher = less cytotoxic
- Test conditions: RPMI 5 mM glucose + 10% dialyzed FBS; 48 h; 0.00702 µM
Endpoint label: cell viability
Output should be the measured figure followed by the unit it is expressed in.

Answered examples (5):
{"columns": ["Compound", "Endpoint label", "Value observed"],
 "data": [
  ["CCN1\\C=C(\\C(O)=O)C(=O)C2=CC=C(C)N=C12", "cell viability", "71.2%"],
  ["CN1C[C@H]2c3ccccc3Oc3ccc(Cl)cc3[C@@H]2C1", "cell viability", "85.4%"],
  ["O=C1c2c(O)ccc(O)c2C(=O)c2c(NCCNCCO)ccc(NCCNCCO)c21", "cell viability", "108%"],
  ["OC1CCC(Nc2ncc3nc(Nc4c(F)cc(F)cc4F)n([C@@H]4CCOC4)c3n2)CC1 (some centres not stated)", "cell viability", "115%"],
  ["C[S+](=O)([O-])N1CCc2c(-c3cnc(N)nc3)nc(N3CCOCC3)nc21", "cell viability", "99.6%"]
]}

Missing value: cell viability, NOMO1, entry CC(C)C[C@H](NC(=O)[C@H](CCc1ccccc1)NC(=O)CN1CCOCC1)C(=O)N[C@@H](Cc1ccccc1)C(=O)N[C@@H](CC(C)C)C(=O)[C@@]1(C)CO1 . Fill in?
98.5%

Lookup OC1=CC2=C(C(=C1)O)C(=O)\C=C(/O2)C3=CC=CC=C3
106%

---

- System: SEM cells
- Protocol notes: cell viability relative to DMSO control; higher = less cytotoxic
- Test conditions: HPLM + 10% dialyzed FBS; 48 h; 1.71 µM
Recorded cell viability values for a group of molecules are listed next.
A number alone suffices; assume %.

Answered examples (5):
{"columns": ["Molecule", "Quantity unit", "Value observed"],
 "data": [
  ["CNC(=O)c1ccc(N2C(=S)N(c3ccc(C#N)c(C(F)(F)F)c3)C(=O)C23CCC3)cc1F", "%", 95.2],
  ["N[C@H](CSC(c1ccccc1)(c1ccccc1)c1ccccc1)C(=O)O", "%", 94],
  ["CCC(C)(Oc1ccc(C2(c3ccc(OC(C)(CC)C(=O)O)cc3)CCCCC2)cc1)C(=O)O (stereo unspecified)", "%", 108],
  ["Cn1cnc2c1c(=O)[nH]c(=O)n2C", "%", 107],
  ["C[C@@]12C[C@@]3(O)O[C@@H](O1)[C@]1(COC(=O)c4ccccc4)[C@H]3C[C@@]12O[C@@H]1O[C@H](CO)[C@@H](O)[C@H](O)[C@H]1O", "%", 96.7]
]}

Requested field: cell viability. Item: COc1cc2ncnc(Nc3ccc(F)c(Cl)c3)c2cc1NC(=O)/C=C/CN1CCCCC1
85.5

Lookup CCN1\C=C(\C(O)=O)C(=O)C2=CC=C(C)N=C12
94.8

Lookup NC\1=N\C(=O)N(\C=C1)[C@@H]2O[C@H](CO)[C@@H](O)[C@H]2O
115

Lookup O=C(O)c1ccc2c(c1)nc(Nc1cccc(Cl)c1)c1ccncc12
102

Lookup O=c1[nH]c2ccccc2n1C1CCN(Cc2ccc(-c3nc4cc5nc[nH]c5cc4nc3-c3ccccc3)cc2)CC1
64.6

Lookup CO[C@H]1/C=C\C=C(\C)C(=O)NC2=CC(=O)C(NCCN(C)C)=C(C[C@@H](C)C[C@H](OC)[C@H](O)[C@@H](C)/C=C(/C)[C@@H]1OC(N)=O)C2=O
25.3

---

Recorded cell viability values for a group of compounds are listed next.
- System: P12-Ichikawa
- Protocol notes: cell viability relative to DMSO control; higher = less cytotoxic
- Test conditions: RPMI 5 mM glucose + 10% FBS; 48 h; 0.00234 µM
A number alone suffices; assume %.

Answered examples (3):
{"columns": ["Compound smiles", "Quantity unit", "cell viability"],
 "data": [
  ["C/C=C(/C)C(=O)O[C@H]1C(C)=C[C@]23C(=O)[C@@H](C=C(CO)[C@@H](O)[C@]12O)[C@H]1[C@@H](C[C@H]3C)C1(C)C", "%", 131],
  ["O=C(O)c1ccc2c(c1)nc(Nc1cccc(Cl)c1)c1ccncc12", "%", 111],
  ["COc1cc2ncnc(Nc3ccc(F)c(Cl)c3)c2cc1NC(=O)/C=C/CN1CCCCC1", "%", 106]
]}

Requested field: cell viability. Item: C\C1=C(\C=C(\C#N)C(=O)N1)C2=CC=NC=C2
114

---

- Tested on: SEM cells
- Protocol notes: cell viability relative to DMSO control; higher = less cytotoxic
- Test conditions: RPMI 5 mM glucose + 10% dialyzed FBS; 48 h; 0.0632 µM
Endpoint label: cell viability (%)
A number alone suffices; assume %.

{"columns": ["Molecule", "Quantity unit", "cell viability"],
 "data": [
  ["N[C@H](CSC(c1ccccc1)(c1ccccc1)c1ccccc1)C(=O)O", "%", 106],
  ["OC(CN1CCC(Cc2ccc(F)cc2)CC1)c1ccc(Cl)cc1 (centres undefined)", "%", 126],
  ["COc1cc(OC)c(/C=C/[S+](=O)([O-])Cc2ccc(OC)c(NCC(=O)[O][Na])c2)c(OC)c1", "%", 121],
  ["C/C=C1\\C2C=C(C)CC1(N)c1ccc(=O)[nH]c1C2 (centres undefined)", "%", 39.9]
]}

Requested field: cell viability. Item: OC[C@H]1OCC(O1)[N@@]2C=CC(N)=NC2=O (some centres undefined)
113

Lookup C\C1=C(\C=C(C#N)/C(=O)N1)C2=C[N]3C=CN=C3C=C2
81.8

---

- System: P12-Ichikawa
- Protocol notes: cell viability relative to DMSO control; higher = less cytotoxic
- Test conditions: RPMI 5 mM glucose + 10% FBS; 48 h; 0.569 µM
Recorded cell viability values for a group of molecules are listed next.
A number alone suffices; assume %.

Answered examples (4):
{"columns": ["Compound smiles", "Quantity unit", "cell viability"],
 "data": [
  ["O=C1c2c(O)ccc(O)c2C(=O)c2c(NCCNCCO)ccc(NCCNCCO)c21", "%", 4.89],
  ["CC(C)=CC[C@@H](O)C/1=C/C(=O)C2=C(O)C=CC(=C2C1=O)O", "%", 120],
  ["CC(C)C(=O)Oc1ccc(CO)cc1[C@H](CCN(C(C)C)C(C)C)c1ccccc1", "%", 86.1],
  ["S=P(N1CC1)(N1CC1)N1CC1", "%", 108]
]}

Requested field: cell viability. Item: COc1ncc(-c2ccc3nccc(-c4ccnnc4)c3c2)cc1N[S+](=O)([O-])c1ccc(F)cc1F
69.9

Lookup C#C[C@]1(O)CC[C@H]2[C@@H]3CCc4cc(O)ccc4[C@H]3CC[C@@]21C
96.7

Lookup CN1CCCN=C1/C=C/c1cccs1.O=C(O)c1cc2ccccc2c(Cc2c(O)c(C(=O)O)cc3ccccc23)c1O
105

Lookup Cc1cc2c(F)c(Oc3ncnn4cc(OC[C@@H](C)O)c(C)c34)ccc2[nH]1
104

The measurements presented in this section are drawn from the supplement of paper PMC11451515.
